tested on: NLRP3; assay: IL-1β secretion assay in PMA-differentiated, LPS/nigericin-stimulated THP-1 cells (384-well, ELISA read-out); type: cell-based, human; conditions: Homo sapiens, THP-1, Table 4; IL-1β secretion, LPS/nigericin-stimulated THP-1 cells; read-out: IC50
assay readout: IC50 (nM)
Quick note: give the figure in nM, leave out the unit.

> print(dat)
                                        smi  target  data.value
1  O=C(CN1C[C@]2(C[C@H]2F)c2cc(I)ccc2C1=O)Nc1ncc(F)cn1   NLRP3           6

*Q* Provide the reported IC50 (system: NLRP3) for O=C(CN1CC2(CC2)c2cc(Br)ccc2C1=O)Nc1ccn2ccnc2n1
*A* 9450

*Q* // fetch IC50; item: O=C(CN1CC2(CC2)c2c(ccc(C(F)(F)F)c2F)C1=O)Nc1ncc(F)cn1 ; system: NLRP3
*A* 366

*Q* Please report IC50 with NLRP3 for item N#Cc1cnc(NC(=O)CN2C[C@]3(C[C@H]3F)c3cc(Br)ccc3C2=O)c(F)c1 .
*A* 70

*Q* Name the recorded IC50 of O=C(CN1CC2(CC2)c2cc(Br)ccc2C1=O)Nc1nccn2ncnc12 , assay system NLRP3.
*A* 1570

*Q* Please report IC50 with NLRP3 for item C[C@]1(O)C[C@@H](NC(=O)CN2CC3(CC3)c3cc(Br)ccc3C2=O)C1 .
*A* 153

*Q* Write IC50 of Cc1cc(C#N)cnc1NC(=O)CN1CC2(CC2)c2cc(Br)ccc2C1=O ; system used: NLRP3
*A* 2000

*Q* For NLRP3, give the measured IC50 of the entry O=C(CN1CC2(CC2)c2cc(Br)ccc2C1=O)Nc1cnc2[nH]ccc2c1
*A* 4390

###

Measured pIC50 of individual entries
test system: NLRP3; experiment: IL-1β secretion assay in PMA-differentiated, LPS/nigericin-stimulated THP-1 cells (384-well, ELISA read-out); format: cell-based, human; details: Table 4; IL-1β secretion, LPS/nigericin-stimulated THP-1 cells; read-out: IC50
# log scale: pIC50 equals minus log10 of the concentration in mol/L

> print(dat)
                                   molecule  target  data.value
1  C[C@H]1C[C@@]12CN(CC(=O)Nc1ncc(F)cn1)C(=O)c1ccc(Br)cc12 (single isomer, unassigned) [Example 282]   NLRP3        5.98
2  O=C(CN1C[C@@]2(C[C@@H]2F)c2cc(C(F)(F)F)ccc2C1=O)Nc1ncccn1 (single isomer, unassigned) [Example 241]   NLRP3        6.87

*Q* Check the records and state pIC50 for N#C[C@H]1C[C@@]12CN(CC(=O)Nc1ncc(F)cn1)C(=O)c1ccc(Br)cc12 (single isomer, unassigned) [Example 286]
*A* 5.71

*Q* Tell me pIC50 reported for O=C(CN1CC2(CC2)c2c(ccc(C3C[C@@H]3F)c2F)C1=O)Nc1ncc(F)cn1 (single isomer, unassigned) [Example 306]
*A* 6.24

*Q* Look up and state reported pIC50 for O=C(CN1C[C@@]2(C[C@@H]2F)c2cc(C(F)(F)F)ccc2C1=O)Nc1ncc(Cl)cn1 (single isomer, unassigned) [Example 239]
*A* 7.43

*Q* Give a short answer stating reported pIC50 for O=C(CN1C[C@@]2(C[C@@H]2F)c2cc(C(F)(F)F)ccc2C1=O)Nc1ncc(F)cn1 (single isomer, unassigned) [Example 235] .
*A* 6.07
